- Test system: RXRa homodimer (NR concentration 180 nM)
- Test summary: PBM binding z-score (relative to random genomic background probes); higher = stronger binding; sequences stand for … in GC…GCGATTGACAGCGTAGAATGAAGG
A collection of sequences and their measured PBM binding z-score
Test readout: PBM binding z-score

Ordered residues	Result
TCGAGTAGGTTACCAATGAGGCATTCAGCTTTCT	0.47
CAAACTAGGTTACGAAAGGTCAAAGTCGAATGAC	6.62
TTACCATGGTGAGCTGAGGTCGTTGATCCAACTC	0.594
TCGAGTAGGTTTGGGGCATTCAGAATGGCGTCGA	-0.158
TTTGCTAGGTCAACGATGGTCAGCTAATCTGCTA	2.67
CCGACTGGGGCAAAGGTTACCATACTCAGTACGA	3.67
AGAAAGAGGTTAAGATCAGGGAAACAGAATACAT	2.82
GCTCGGAGGACAAGGTGAGAGCTTTGTCCGTAGA	-0.256
CATACAGGGTCAGCTAGGCCAGCGTAGGGACGGC	4.2
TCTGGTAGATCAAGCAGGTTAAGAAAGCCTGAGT	0.202
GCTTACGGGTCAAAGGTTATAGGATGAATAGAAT	9.57

====

A collection of sequences and their measured PBM binding z-score
- Tested on: THRa homodimer (NR concentration 90 nM)
- Test summary: PBM binding z-score (relative to random genomic background probes); higher = stronger binding; sequences stand for … in GC…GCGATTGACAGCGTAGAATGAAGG

Ordered residues	Target system	PBM binding z-score
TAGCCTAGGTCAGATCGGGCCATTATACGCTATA	THRa homodimer (NR concentration 90 nM)	0.543
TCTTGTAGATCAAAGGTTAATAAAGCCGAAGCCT	THRa homodimer (NR concentration 90 nM)	-0.223
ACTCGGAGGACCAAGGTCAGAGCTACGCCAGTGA	THRa homodimer (NR concentration 90 nM)	1.17
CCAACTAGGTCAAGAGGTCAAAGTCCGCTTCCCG	THRa homodimer (NR concentration 90 nM)	2.47
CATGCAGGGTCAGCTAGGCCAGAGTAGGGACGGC	THRa homodimer (NR concentration 90 nM)	0.624
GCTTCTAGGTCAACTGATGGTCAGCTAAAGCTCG	THRa homodimer (NR concentration 90 nM)	1.79
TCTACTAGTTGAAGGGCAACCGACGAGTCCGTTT	THRa homodimer (NR concentration 90 nM)	-0.254
CAAACTAGGTCACCGGAAGGTCAAAATCCGCATG	THRa homodimer (NR concentration 90 nM)	2.94
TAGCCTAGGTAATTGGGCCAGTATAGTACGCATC	THRa homodimer (NR concentration 90 nM)	-0.68
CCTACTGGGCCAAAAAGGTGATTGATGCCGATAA	THRa homodimer (NR concentration 90 nM)	-0.353
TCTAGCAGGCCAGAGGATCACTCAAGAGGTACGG	THRa homodimer (NR concentration 90 nM)	-0.974

====

- Tested on: PPARg DBDmut IVT, anti-PPARg (DBD mutation: PPARg1 K132A/R137A, NR concentration 270 nM)
- Test summary: PBM binding z-score (relative to random genomic background probes); higher = stronger binding; sequences stand for … in GC…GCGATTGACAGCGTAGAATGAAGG
Test readout: PBM binding z-score

Ordered residues	Target system	Result
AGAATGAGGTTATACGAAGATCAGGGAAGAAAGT	PPARg DBDmut IVT, anti-PPARg (DBD mutation: PPARg1 K132A/R137A, NR concentration 270 nM)	0.512
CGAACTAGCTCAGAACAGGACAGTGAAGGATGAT	PPARg DBDmut IVT, anti-PPARg (DBD mutation: PPARg1 K132A/R137A, NR concentration 270 nM)	0.0741
TCGAGTAGGTTAGTCGGGGCATTCATCCAACATA	PPARg DBDmut IVT, anti-PPARg (DBD mutation: PPARg1 K132A/R137A, NR concentration 270 nM)	-0.145
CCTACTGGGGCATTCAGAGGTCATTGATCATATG	PPARg DBDmut IVT, anti-PPARg (DBD mutation: PPARg1 K132A/R137A, NR concentration 270 nM)	0.266
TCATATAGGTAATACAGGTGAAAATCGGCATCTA	PPARg DBDmut IVT, anti-PPARg (DBD mutation: PPARg1 K132A/R137A, NR concentration 270 nM)	1.47
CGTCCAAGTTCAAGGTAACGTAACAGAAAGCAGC	PPARg DBDmut IVT, anti-PPARg (DBD mutation: PPARg1 K132A/R137A, NR concentration 270 nM)	0.315
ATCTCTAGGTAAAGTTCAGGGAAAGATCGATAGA	PPARg DBDmut IVT, anti-PPARg (DBD mutation: PPARg1 K132A/R137A, NR concentration 270 nM)	1.09
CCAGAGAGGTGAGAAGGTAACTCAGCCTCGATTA	PPARg DBDmut IVT, anti-PPARg (DBD mutation: PPARg1 K132A/R137A, NR concentration 270 nM)	-0.518
GCTAGCAGCCCATTTGGGTCACTCAATGACGGGC	PPARg DBDmut IVT, anti-PPARg (DBD mutation: PPARg1 K132A/R137A, NR concentration 270 nM)	-1.56
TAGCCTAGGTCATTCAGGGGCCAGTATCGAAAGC	PPARg DBDmut IVT, anti-PPARg (DBD mutation: PPARg1 K132A/R137A, NR concentration 270 nM)	-0.403
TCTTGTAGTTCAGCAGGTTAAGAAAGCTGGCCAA	PPARg DBDmut IVT, anti-PPARg (DBD mutation: PPARg1 K132A/R137A, NR concentration 270 nM)	0.25
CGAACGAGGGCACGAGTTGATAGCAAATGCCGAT	PPARg DBDmut IVT, anti-PPARg (DBD mutation: PPARg1 K132A/R137A, NR concentration 270 nM)	-0.0688
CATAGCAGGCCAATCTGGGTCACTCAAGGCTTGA	PPARg DBDmut IVT, anti-PPARg (DBD mutation: PPARg1 K132A/R137A, NR concentration 270 nM)	-0.125
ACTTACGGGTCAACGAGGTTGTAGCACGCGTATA	PPARg DBDmut IVT, anti-PPARg (DBD mutation: PPARg1 K132A/R137A, NR concentration 270 nM)	1.73
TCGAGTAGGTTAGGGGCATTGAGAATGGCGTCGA	PPARg DBDmut IVT, anti-PPARg (DBD mutation: PPARg1 K132A/R137A, NR concentration 270 nM)	-0.696
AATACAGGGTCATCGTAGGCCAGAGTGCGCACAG	PPARg DBDmut IVT, anti-PPARg (DBD mutation: PPARg1 K132A/R137A, NR concentration 270 nM)	1.13
TCCTGTAGATCAGCAGGTTAAGAAAGCTGGCCAA	PPARg DBDmut IVT, anti-PPARg (DBD mutation: PPARg1 K132A/R137A, NR concentration 270 nM)	-0.0553
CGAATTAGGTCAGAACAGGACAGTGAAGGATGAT	PPARg DBDmut IVT, anti-PPARg (DBD mutation: PPARg1 K132A/R137A, NR concentration 270 nM)	1.42
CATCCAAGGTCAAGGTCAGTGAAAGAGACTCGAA	PPARg DBDmut IVT, anti-PPARg (DBD mutation: PPARg1 K132A/R137A, NR concentration 270 nM)	0.636
TATACAGGGTCAAAGGCCAGAGTCCGAATGTCGA	PPARg DBDmut IVT, anti-PPARg (DBD mutation: PPARg1 K132A/R137A, NR concentration 270 nM)	0.522
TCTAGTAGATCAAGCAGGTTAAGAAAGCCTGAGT	PPARg DBDmut IVT, anti-PPARg (DBD mutation: PPARg1 K132A/R137A, NR concentration 270 nM)	-0.0304
CGTCAAAGTTCAACTAAGGTAACGTAGAGCACGC	PPARg DBDmut IVT, anti-PPARg (DBD mutation: PPARg1 K132A/R137A, NR concentration 270 nM)	0.785
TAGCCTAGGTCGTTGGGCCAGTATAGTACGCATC	PPARg DBDmut IVT, anti-PPARg (DBD mutation: PPARg1 K132A/R137A, NR concentration 270 nM)	-0.754
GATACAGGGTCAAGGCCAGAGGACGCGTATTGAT	PPARg DBDmut IVT, anti-PPARg (DBD mutation: PPARg1 K132A/R137A, NR concentration 270 nM)	0.968
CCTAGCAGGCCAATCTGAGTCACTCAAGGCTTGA	PPARg DBDmut IVT, anti-PPARg (DBD mutation: PPARg1 K132A/R137A, NR concentration 270 nM)	-1.49
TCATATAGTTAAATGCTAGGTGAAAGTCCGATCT	PPARg DBDmut IVT, anti-PPARg (DBD mutation: PPARg1 K132A/R137A, NR concentration 270 nM)	1.69
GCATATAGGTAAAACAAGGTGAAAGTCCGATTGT	PPARg DBDmut IVT, anti-PPARg (DBD mutation: PPARg1 K132A/R137A, NR concentration 270 nM)	0.508
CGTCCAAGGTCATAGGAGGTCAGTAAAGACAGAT	PPARg DBDmut IVT, anti-PPARg (DBD mutation: PPARg1 K132A/R137A, NR concentration 270 nM)	1.13
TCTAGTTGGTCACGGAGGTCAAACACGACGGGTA	PPARg DBDmut IVT, anti-PPARg (DBD mutation: PPARg1 K132A/R137A, NR concentration 270 nM)	0.77
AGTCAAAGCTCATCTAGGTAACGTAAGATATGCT	PPARg DBDmut IVT, anti-PPARg (DBD mutation: PPARg1 K132A/R137A, NR concentration 270 nM)	0.493
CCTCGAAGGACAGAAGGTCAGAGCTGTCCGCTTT	PPARg DBDmut IVT, anti-PPARg (DBD mutation: PPARg1 K132A/R137A, NR concentration 270 nM)	-1.97
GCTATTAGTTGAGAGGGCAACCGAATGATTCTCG	PPARg DBDmut IVT, anti-PPARg (DBD mutation: PPARg1 K132A/R137A, NR concentration 270 nM)	-0.0279
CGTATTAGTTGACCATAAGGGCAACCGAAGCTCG	PPARg DBDmut IVT, anti-PPARg (DBD mutation: PPARg1 K132A/R137A, NR concentration 270 nM)	-0.147
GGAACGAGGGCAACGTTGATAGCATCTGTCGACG	PPARg DBDmut IVT, anti-PPARg (DBD mutation: PPARg1 K132A/R137A, NR concentration 270 nM)	0.351
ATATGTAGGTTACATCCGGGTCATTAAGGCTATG	PPARg DBDmut IVT, anti-PPARg (DBD mutation: PPARg1 K132A/R137A, NR concentration 270 nM)	2.14
